- run-description: Selectivity ratio of IC50 for human CYP11B1 expressed in human renal leiomyoblastoma cells harboring FDXR/FDX to IC50 for human CYP11B2 expressed in human renal leiomyoblastoma cells harboring FDXR/FDX
- Format: cell-based
Label condition met when Ratio IC50 >= 80; otherwise condition not met.

Cc1ccncc1C(=O)N1CC2(C1)CN(c1cncc(N3C(=O)c4ccc(Cl)cc4C3(C)C)c1)C2 : condition met

Task: Determine whether this compound has Ratio IC50 no lower than 80: `CC(=O)N1CCC(c2cncc(N3C(=O)c4ccc(Cl)cc4C3(C)C)c2)CC1`
Output: condition not met

Task: Could you verify whether the entry `CC(=O)N1CC[C@@H](Oc2cncc(N3C(=O)c4ccc(Cl)cc4C3(C)C)c2)C1` shows Ratio IC50 of no less than 80?
Output: condition met

Task: Tell me whether Ratio IC50 is at least 80 here: `CC(=O)N[C@@H]1CCCc2c1cncc2N1C(=O)c2ccc(Cl)cc2[C@@H]1C`
Output: condition not met

Task: Is Ratio IC50 at least 80? Consider `CC1(C)c2cc(Cl)ccc2C(=O)N1c1cncc(N2CCN(S(C)(=O)=O)CC2)c1`
Output: condition met

Task: State whether the measured Ratio IC50 reaches 80, counting equality as reaching it, for `Cn1cc(C(=O)N2CC(Oc3cncc(N4C(=O)c5ccc(Cl)cc5C4(C)C)c3)C2)cn1`
Output: condition met

Task: Does the compound `CS(=O)(=O)N[C@@H]1CCCc2c1cncc2N1CCc2cc(Cl)ccc2C1=O` have recorded Ratio IC50 that is 80 or more?
Output: condition not met

Task: Does Ratio IC50 meet or surpass 80 for `C[C@@H](NS(C)(=O)=O)c1cncc(N2C(=O)c3ccc(Cl)cc3C2(C)C)c1` ?
Output: condition not met

Task: Check the entry `CCC(=O)N[C@@H]1CCCc2c1cncc2N1C(=O)c2ccc(Cl)cc2[C@@H]1C` : does Ratio IC50 equal or exceed 80?
Output: condition not met

Task: Could you please find out whether `CC1(C)c2cc(Cl)ccc2C(=O)N1c1cccnc1` has Ratio IC50 that meets 80 or exceeds it?
Output: condition not met

Task: Please check the record O=C1c2ccc(Cl)cc2C(C2CC2)N1c1cccnc1 (stereo not given) and state if its Ratio IC50 is at or above 80.
Output: condition met

Task: Would you say `CC1(C)c2cc(Cl)ccc2C(=O)N1c1cncc(OC2CN(C(=O)c3ncccc3Cl)C2)c1` shows Ratio IC50 at minimum 80?
Output: condition met

* * *

Give measured clearance for each item. Keep answers brief.
- run-description: Plasma clearance in Wister-Han rat at 1 mg/kg, iv administered as single dose by LC/MS-MS analysis
- Type: ADME, organism-based
- condition-summary: Wistar-Han
One number for each entry, in mL/min/kg.

Sample answers from the record:
CC1(C)c2cc(Cl)ccc2C(=O)N1c1cncc(N2CCN(S(C)(=O)=O)CC2)c1 : 16.6
CCS(=O)(=O)N1CCC(c2cncc(N3C(=O)c4ccc(Cl)cc4C3(C)C)c2)CC1 : 29.7
CCS(=O)(=O)N1CC(Oc2cncc(N3C(=O)c4ccc(Cl)cc4C3(C)C)c2)C1 : 3.8

Quick request: clearance for each listed item, please.
1. Cn1cc(C(=O)N2CC3(C2)CN(c2cncc(N4C(=O)c5ccc(Cl)cc5C4(C)C)c2)C3)cn1
2. CC1(C)c2cc(Cl)ccc2C(=O)N1c1cncc(OC2CN(C(=O)c3ncccc3Cl)C2)c1
3. Cn1cc(C(=O)N2CC(Oc3cncc(N4C(=O)c5ccc(Cl)cc5C4(C)C)c3)C2)cn1
4. Cc1ccncc1C(=O)N1CC(Oc2cncc(N3C(=O)c4ccc(Cl)cc4C3(C)C)c2)C1

Output:
1: 6.4; 2: 3.1; 3: 3.8; 4: 15.8

* * *

- run-description: Intrinsic clearance in rat liver microsomes preincubated for 10 mins followed by NADPH regenerating system addition and measured up to 30 mins by LC/MS-MS analysis
- Assay type: ADME, Microsome
attribute-measured: predicted hepatic clearance (CLH)

Completed entries (count: 2):
CC(=O)N[C@@H]1CCCc2c1cncc2N1CCc2cc(Cl)ccc2C1=O : < 20.2 mL/min/kg
CS(=O)(=O)N[C@@H]1CCCc2c1cncc2N1CCc2cc(Cl)ccc2C1=O : < 20.2 mL/min/kg

Please look at the following compound next.
Recorded result, `CCC(=O)N[C@@H]1CCCc2c1cncc2N1CCc2cc(Cl)ccc2C1=O` , predicted hepatic clearance (CLH): < 20.2 mL/min/kg

* * *

Exercise: for every item that follows, state its recorded IC50.
- target-entity: Cytochrome P450 11B1, mitochondrial (Homo sapiens)
- Sequence (P15538 whole entry): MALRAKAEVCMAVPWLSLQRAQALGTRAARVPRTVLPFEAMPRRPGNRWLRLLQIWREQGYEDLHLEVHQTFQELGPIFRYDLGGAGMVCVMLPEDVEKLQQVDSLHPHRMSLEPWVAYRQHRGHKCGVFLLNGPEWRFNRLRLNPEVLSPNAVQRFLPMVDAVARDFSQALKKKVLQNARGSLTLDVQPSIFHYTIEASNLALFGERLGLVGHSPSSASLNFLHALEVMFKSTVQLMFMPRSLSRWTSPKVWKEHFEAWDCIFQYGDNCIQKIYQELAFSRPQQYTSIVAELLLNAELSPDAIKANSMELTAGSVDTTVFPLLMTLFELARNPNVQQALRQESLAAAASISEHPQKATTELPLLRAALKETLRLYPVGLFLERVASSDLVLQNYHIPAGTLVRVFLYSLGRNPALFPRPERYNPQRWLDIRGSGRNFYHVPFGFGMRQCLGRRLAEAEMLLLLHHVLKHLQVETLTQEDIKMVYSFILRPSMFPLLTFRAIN
- run-description: Inhibition of human CYP11B1 expressed in human renal leiomyoblastoma cells harboring FDXR/FDX using 1-deoxycortisol as substrate by HTRF assay

Some entries whose results are on file:
CC(=O)N[C@@H]1CCCc2c1cncc2N1C(=O)c2ccc(Cl)cc2[C@H]1C : 5.14 µM
Cc1ccc(C(=O)Nc2cccnc2)cc1 : > 3 µM

# next compound below
The compound `CC1(C)CN(c2cccnc2)C(=O)c2ccc(Cl)cc21` showed IC50 equal to > 10 µM

* * *

- run-description: Intrinsic clearance in mouse liver microsomes preincubated for 10 mins followed by NADPH regenerating system addition and measured up to 30 mins by LC/MS-MS analysis
- Type: ADME, Microsome
Exercise: state measured predicted hepatic clearance (CLH) for each of the compounds provided.

Take a look at these entries with their results.
CC(=O)N[C@@H]1CCCc2c1cncc2N1C(=O)c2ccc(Cl)cc2[C@@H]1C : < 20.2 mL/min/kg
O=C1c2ccc(Cl)cc2CCN1c1cccnc1 : < 20.2 mL/min/kg

predicted hepatic clearance (CLH) in this record for `CC[C@H]1c2cc(Cl)ccc2C(=O)N1c1cncc2c1CCC[C@H]2NC(C)=O` : < 20.2 mL/min/kg

* * *

Assign IC50 to each entry below.
- target-entity: Cytochrome P450 11B2, mitochondrial (Homo sapiens, UniProt P19099)
- Sequence (P19099 whole entry): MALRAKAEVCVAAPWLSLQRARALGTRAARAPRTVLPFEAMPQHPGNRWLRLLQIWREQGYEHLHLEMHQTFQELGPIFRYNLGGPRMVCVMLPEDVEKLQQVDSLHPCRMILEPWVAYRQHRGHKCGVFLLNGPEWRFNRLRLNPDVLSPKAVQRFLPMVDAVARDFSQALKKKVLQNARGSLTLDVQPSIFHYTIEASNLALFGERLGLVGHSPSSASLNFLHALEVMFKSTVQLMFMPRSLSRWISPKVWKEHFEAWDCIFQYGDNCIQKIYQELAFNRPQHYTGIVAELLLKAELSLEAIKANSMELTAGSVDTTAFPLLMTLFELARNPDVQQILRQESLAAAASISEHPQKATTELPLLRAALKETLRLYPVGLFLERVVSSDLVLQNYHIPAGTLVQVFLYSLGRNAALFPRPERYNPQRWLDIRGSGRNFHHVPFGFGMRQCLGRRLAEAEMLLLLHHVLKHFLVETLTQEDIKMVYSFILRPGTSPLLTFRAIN
- run-description: Inhibition of human CYP11B2 expressed in human renal leiomyoblastoma cells harboring FDXR/FDX using 1-deoxycorticosterone as substrate by HTRF assay
- Assay type: cell-based

Cc1ccc(C(=O)Nc2cccnc2)cc1 : > 3 µM
CN(C(=O)c1ccc(Cl)cc1F)c1cccnc1 : > 3 µM

# input for lookup
Record `CN(C(=O)c1ccc(C#N)cc1)c1cccnc1` , field IC50: > 3 µM

* * *

- run-description: Intrinsic clearance in mouse liver microsomes preincubated for 10 mins followed by NADPH regenerating system addition and measured up to 30 mins by LC/MS-MS analysis
- Format: ADME, Microsome
Exercise: state measured predicted hepatic clearance (CLH) for each of the compounds provided.

Below: 5 compounds and their reported predicted hepatic clearance (CLH).
CCC(=O)N[C@@H]1CCCc2c1cncc2N1C(=O)c2ccc(Cl)cc2[C@@H]1C : < 1.21 L/h/kg
CC[C@@H]1c2cc(Cl)ccc2C(=O)N1c1cncc2c1CCC[C@H]2NC(C)=O : < 1.21 L/h/kg
CCC(=O)N[C@@H]1CCCc2c1cncc2N1Cc2cc(Cl)ccc2C1=O : < 1.21 L/h/kg
CC(=O)N[C@@H]1CCCc2c1cncc2N1Cc2cc(Cl)ccc2C1=O : < 1.21 L/h/kg
CS(=O)(=O)N[C@@H]1CCCc2c1cncc2N1Cc2cc(Cl)ccc2C1=O : < 1.21 L/h/kg

Let us examine a further case.
Item: `CCC(=O)N[C@@H]1CCCc2c1cncc2N1C(=O)c2ccc(Cl)cc2[C@@H]1CC` | predicted hepatic clearance (CLH): < 1.21 L/h/kg

* * *

- run-description: Selectivity ratio of IC50 for human CYP11B1 expressed in human renal leiomyoblastoma cells harboring FDXR/FDX to IC50 for human CYP11B2 expressed in human renal leiomyoblastoma cells harboring FDXR/FDX
- Assay type: cell-based
Would you please tag the item yes when its Ratio IC50 is 20 or above, and no when it is below?

CC(=O)N1CCC(Oc2cncc(N3C(=O)c4ccc(Cl)cc4C3(C)C)c2)CC1 : yes
O=C1c2ccc(Cl)cc2CN1c1cccnc1 : yes
CCS(=O)(=O)N[C@@H]1CCCc2c1cncc2N1Cc2cc(Cl)ccc2C1=O : yes

Task: Ratio IC50 >= 20 for `CC1(C)c2cc(Cl)ccc2C(=O)N1c1cncc(CNS(C)(=O)=O)c1` ?
Output: yes

* * *

Please respond with reported Ratio IC50 for every item in the list.
- run-description: Selectivity ratio of IC50 for human CYP11B1 expressed in human renal leiomyoblastoma cells harboring FDXR/FDX to IC50 for human CYP11B2 expressed in human renal leiomyoblastoma cells harboring FDXR/FDX
- Format: cell-based
Numbers only.

Cn1cc(C(=O)N2CC3(C2)CN(c2cncc(N4C(=O)c5ccc(Cl)cc5C4(C)C)c2)C3)cn1 : 5680
Cc1ccncc1C(=O)N1CC(Oc2cncc(N3C(=O)c4ccc(Cl)cc4C3(C)C)c2)C1 : 553
CCS(=O)(=O)N1CC(Oc2cncc(N3C(=O)c4ccc(Cl)cc4C3(C)C)c2)C1 : 162
CC[C@@H]1c2cc(Cl)ccc2C(=O)N1c1cncc2c1CCC[C@H]2NC(C)=O : 48
CCS(=O)(=O)N1CC2(CN(c3cncc(N4C(=O)c5ccc(Cl)cc5C4(C)C)c3)C2)C1 : 855
CC(=O)N[C@@H]1CCCc2c1cncc2N1CCc2cc(Cl)ccc2C1=O : 73
CCC1c2cc(Cl)ccc2C(=O)N1c1cccnc1 (stereo not drawn) : 28

Continue with the next molecule.
The recorded Ratio IC50 for entry `O=C1c2ccc(Cl)cc2CCN1c1cccnc1` equals 82
